Each entry below carries its reported AC50.
- tested on: Bile salt export pump (Homo sapiens); note: assay procedure not described here
- Sequence (O95342 whole entry): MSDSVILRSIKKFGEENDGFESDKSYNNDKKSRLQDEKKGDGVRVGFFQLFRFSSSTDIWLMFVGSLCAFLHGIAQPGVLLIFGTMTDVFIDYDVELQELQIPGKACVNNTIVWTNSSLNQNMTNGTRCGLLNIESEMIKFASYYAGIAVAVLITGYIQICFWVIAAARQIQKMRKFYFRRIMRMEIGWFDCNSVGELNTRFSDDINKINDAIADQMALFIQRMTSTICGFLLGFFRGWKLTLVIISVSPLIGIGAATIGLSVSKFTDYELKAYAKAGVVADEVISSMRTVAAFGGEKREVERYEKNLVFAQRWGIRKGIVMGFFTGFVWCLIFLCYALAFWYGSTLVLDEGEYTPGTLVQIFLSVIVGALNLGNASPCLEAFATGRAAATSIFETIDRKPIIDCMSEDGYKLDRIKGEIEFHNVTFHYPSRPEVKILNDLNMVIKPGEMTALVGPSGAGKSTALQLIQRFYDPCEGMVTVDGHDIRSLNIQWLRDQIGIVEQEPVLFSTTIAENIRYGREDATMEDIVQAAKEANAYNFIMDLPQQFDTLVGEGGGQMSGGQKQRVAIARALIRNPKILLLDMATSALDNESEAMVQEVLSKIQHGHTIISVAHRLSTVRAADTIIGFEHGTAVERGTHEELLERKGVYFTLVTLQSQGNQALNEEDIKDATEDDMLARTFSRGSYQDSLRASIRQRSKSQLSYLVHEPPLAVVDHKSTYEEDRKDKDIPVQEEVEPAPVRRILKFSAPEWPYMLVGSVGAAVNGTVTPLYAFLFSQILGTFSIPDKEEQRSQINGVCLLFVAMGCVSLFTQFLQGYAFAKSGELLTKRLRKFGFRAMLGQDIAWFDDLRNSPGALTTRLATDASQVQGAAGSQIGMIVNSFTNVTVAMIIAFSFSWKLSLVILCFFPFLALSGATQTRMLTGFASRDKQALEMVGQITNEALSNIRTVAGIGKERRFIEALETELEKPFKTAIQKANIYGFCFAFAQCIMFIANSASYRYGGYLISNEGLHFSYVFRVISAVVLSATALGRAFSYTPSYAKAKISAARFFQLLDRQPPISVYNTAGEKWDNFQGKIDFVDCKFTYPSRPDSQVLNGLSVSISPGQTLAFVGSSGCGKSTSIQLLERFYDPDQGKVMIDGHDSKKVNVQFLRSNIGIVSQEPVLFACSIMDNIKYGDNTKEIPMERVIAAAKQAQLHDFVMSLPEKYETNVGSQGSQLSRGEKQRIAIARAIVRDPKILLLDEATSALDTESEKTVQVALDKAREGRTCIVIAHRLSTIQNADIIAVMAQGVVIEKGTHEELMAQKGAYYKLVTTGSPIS
- Format: functional

Guide cases for AC50, answers given:
>>> value_measured("NC(=O)NS(=O)(=O)c1ccc(N)cc1 [SULFACARBAMIDE]")
"> 300 µM"
>>> value_measured("NCCc1ccc(O)cc1")
"> 300 µM"

API: the following record is the query input.
Tested on Bile salt export pump (Homo sapiens), the item O=C1NC(=O)C(c2ccccc2)(c2ccccc2)N1 showed AC50 equal to > 300 µM

====

Measured AC50 (UniProt:P20309)
Sequence (P20309 whole entry): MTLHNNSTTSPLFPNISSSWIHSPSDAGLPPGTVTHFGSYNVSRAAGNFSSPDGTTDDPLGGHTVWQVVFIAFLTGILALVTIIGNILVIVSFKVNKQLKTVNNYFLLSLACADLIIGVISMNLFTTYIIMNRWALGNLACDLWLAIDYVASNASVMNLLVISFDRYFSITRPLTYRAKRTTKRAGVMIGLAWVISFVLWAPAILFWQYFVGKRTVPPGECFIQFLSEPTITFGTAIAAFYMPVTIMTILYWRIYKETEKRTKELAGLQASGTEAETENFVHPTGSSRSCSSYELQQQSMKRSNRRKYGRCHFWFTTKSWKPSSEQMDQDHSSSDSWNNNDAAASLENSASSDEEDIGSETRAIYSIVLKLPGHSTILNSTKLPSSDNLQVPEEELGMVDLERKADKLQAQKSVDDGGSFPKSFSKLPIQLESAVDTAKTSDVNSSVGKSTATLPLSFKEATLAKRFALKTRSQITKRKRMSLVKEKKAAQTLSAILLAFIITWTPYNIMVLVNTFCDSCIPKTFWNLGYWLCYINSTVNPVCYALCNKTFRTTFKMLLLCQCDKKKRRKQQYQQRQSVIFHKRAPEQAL

Guide cases for AC50, answers given:
>>> value_measured("CC(=O)OCC(=O)[C@@]1(O)CC[C@H]2[C@@H]3CCC4=CC(=O)CC[C@]4(C)C3=CC[C@@]21C [ANECORTAVE ACETATE]")
"> 30 µM"
>>> value_measured("CCOC(=O)NNc1ccc(N(CC)CC(C)O)nn1 (centres undefined) [CADRALAZINE]")
"> 30 µM"
>>> value_measured("CC(CCc1ccccc1)NC(C)C(O)c1ccc(O)cc1 (centres undefined) [NYLIDRIN]")
"> 10 µM"

API: the following record is the query input.
Tested on UniProt:P20309, the item C[C@H]1Oc2cc(cnc2N)-c2c(nn(C)c2C#N)CN(C)C(=O)c2ccc(F)cc21 [LORLATINIB] showed AC50 equal to > 30 µM

====

- tested on: Alpha-2B adrenergic receptor (Homo sapiens); note: assay procedure not described here
- Sequence (P18089 whole entry): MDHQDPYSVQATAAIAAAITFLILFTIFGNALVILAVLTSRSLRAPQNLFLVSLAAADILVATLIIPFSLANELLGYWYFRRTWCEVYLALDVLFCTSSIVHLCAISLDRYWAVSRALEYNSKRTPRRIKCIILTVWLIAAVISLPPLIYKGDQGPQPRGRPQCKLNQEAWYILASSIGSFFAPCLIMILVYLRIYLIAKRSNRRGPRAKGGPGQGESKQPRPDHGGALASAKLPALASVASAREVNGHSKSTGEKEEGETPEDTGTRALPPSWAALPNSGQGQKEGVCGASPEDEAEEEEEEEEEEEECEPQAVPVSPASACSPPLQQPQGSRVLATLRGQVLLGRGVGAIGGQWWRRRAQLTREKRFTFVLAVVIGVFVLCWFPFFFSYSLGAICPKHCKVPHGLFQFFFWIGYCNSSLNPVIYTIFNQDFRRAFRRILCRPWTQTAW
measure: AC50

Lab book: AC50 of O=C(O)c1ccccc1Nc1cccc(C(F)(F)F)c1 noted as > 10 µM

Lab book: AC50 of O=C(CCCN1CCC2(CC1)C(=O)NCN2c1ccccc1)c1ccc(F)cc1 noted as 2.25 µM

Lab book: AC50 of NC(=O)CCC/N=C(\c1ccc(Cl)cc1)c1cc(F)ccc1O [PROGABIDE] noted as > 10 µM

Lab book: AC50 of N#C[C@@H]1CCCN1C(=O)CNC12CC3CC(CC(O)(C3)C1)C2 noted as > 30 µM

Lab book: AC50 of CCCCC1(CC)C(=O)NC(=O)NC1=O noted as > 30 µM

Lab book: AC50 of CC(=O)c1ccc2c(c1)N(CCCN1CCC(CCO)CC1)c1ccccc1S2 noted as 0.068 µM

====

- tested on: Cholecystokinin receptor type A (Homo sapiens); note: assay procedure not described here
- Sequence (P32238 whole entry): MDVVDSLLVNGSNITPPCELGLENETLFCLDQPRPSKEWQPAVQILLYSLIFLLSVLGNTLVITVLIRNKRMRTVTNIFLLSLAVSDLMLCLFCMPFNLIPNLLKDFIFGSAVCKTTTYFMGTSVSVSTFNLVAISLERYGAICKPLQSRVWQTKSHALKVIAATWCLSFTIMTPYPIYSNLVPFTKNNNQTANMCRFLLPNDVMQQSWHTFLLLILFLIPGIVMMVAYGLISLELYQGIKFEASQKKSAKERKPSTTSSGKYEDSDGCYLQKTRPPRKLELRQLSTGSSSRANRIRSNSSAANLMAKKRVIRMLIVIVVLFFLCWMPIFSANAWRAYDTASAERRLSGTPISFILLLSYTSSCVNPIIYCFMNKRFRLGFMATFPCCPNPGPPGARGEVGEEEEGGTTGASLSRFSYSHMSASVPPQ
measure: AC50

Guide cases for AC50, answers given:
>>> value_measured("CCCN(CC)C(CC)C(=O)Nc1c(C)cccc1C (stereo unspecified) [ETIDOCAINE]")
"> 30 µM"
>>> value_measured("CC(=O)Oc1ccccc1C(=O)Nc1ncc([N+](=O)[O-])s1 [NITAZOXANIDE]")
"6.6 µM"

Tested on Cholecystokinin receptor type A (Homo sapiens), the item C#C[C@]1(O)CC[C@H]2[C@@H]3CCC4=CC(=O)CCC4=C3C=C[C@@]21CC [GESTRINONE] showed AC50 equal to > 30 µM

Tested on Cholecystokinin receptor type A (Homo sapiens), the item C[C@H]1C[C@H]2[C@@H]3CCC4=CC(=O)C=C[C@]4(C)[C@@]3(Cl)[C@@H](O)C[C@]2(C)[C@@]1(O)C(=O)CO [BECLOMETHASONE] showed AC50 equal to > 30 µM

Tested on Cholecystokinin receptor type A (Homo sapiens), the item CC(=O)S[C@@H]1CC2=CC(=O)CC[C@]2(C)[C@H]2CC[C@@]3(C)[C@@H](CC[C@@]34CCC(=O)O4)[C@H]12 [SPIRONOLACTONE] showed AC50 equal to > 30 µM

Tested on Cholecystokinin receptor type A (Homo sapiens), the item Clc1cccc(Cl)c1N=C1NCCN1 [CLONIDINE] showed AC50 equal to > 30 µM

Tested on Cholecystokinin receptor type A (Homo sapiens), the item CCCNC(C)C(=O)Nc1ccccc1C (stereo unspecified) [PRILOCAINE] showed AC50 equal to > 30 µM

Tested on Cholecystokinin receptor type A (Homo sapiens), the item Clc1ccc2c(c1)C(c1ccccc1)=NCc1nncn1-2 [ESTAZOLAM] showed AC50 equal to > 30 µM

Tested on Cholecystokinin receptor type A (Homo sapiens), the item CC1(C)O[C@@H]2[C@@H](CO[C@@]3(COS(N)(=O)=O)OC(C)(C)O[C@@H]23)O1 [TOPIRAMATE] showed AC50 equal to > 30 µM

These entries and their values trace back to ChEMBL document CHEMBL5291721.
